test: small-molecule microarray binders of probe aWnt5a, primary screen, biochemical, biotinylated probe, 635/667 nm fluorescence (AID 1113); details: higher = more signal;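 also: score merges 667 nm fluorescence intensity with signal-to-noise per printed feature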
Decision: composite z-score >= -0.09 yields TRUE, all other cases yield FALSE.

Some entries whose results are on file:
[[record]]
compound = "C=CCOC(=O)[C@H]1[C@@H]2C(=O)O[C@@H](c3ccccc3)[C@@H](c3ccccc3)N2[C@@H](c2ccc(OCCOC(=O)[C@H]3C[C@H]4C(=O)N5CCC[C@H]5C(=O)N4[C@H]3c3cccc(OCCO)c3)cc2)[C@]12C(=O)Nc1ccccc12"
label_value = "TRUE"

[[record]]
compound = "CCOC(=O)C[C@H]1[C@H](OC(=O)c2ccc(-c3ccccc3)cc2)[C@@H](NC(=O)C2CCCCC2)c2cc(OCCCO)ccc2N1C(=O)c1ccc2ccccc2n1"
label_value = "TRUE"

[[record]]
compound = "COc1ccc([Si](C)(C)[C@H]2[C@H](CC(=O)N(CCO)Cc3ccccc3)O[C@@]3(C(=O)N(Cc4ccc(N5CCOC5=O)cc4)c4ccccc43)[C@@H]2C)cc1"
label_value = "FALSE"

[[record]]
compound = "CC(C)NC(=O)[C@@H]1c2ccccc2C(=O)N(Cc2cc(F)cc(C(F)(F)F)c2)[C@H]1c1ccc(CO)cc1"
label_value = "FALSE"

[[record]]
compound = "CC(C)CCC[C@@H](C)[C@H]1CC[C@@]2(C)C3=C(CC[C@]12C)[C@@]1(C)CC[C@H](OC(=O)CCl)C(C)(C)C1CC3 (some centres undefined)"
label_value = "TRUE"


// inclusive: composite z-score at least -0.09? input: COC(=O)c1c2oc(c1C(=O)OC)C(=O)N[C@@H](C(C)C)Cn1nncc1C1(CCCCC1)NC(=O)N[C@H](CO)CC2
FALSE

Then this compound: O=C1c2ccccc2C(=O)c2cc([C@H]3Oc4ccccc4S(=O)(=O)N4CCC[C@@H]34)ccc21
FALSE

Then this compound: CC(C)C(=C=CC[C@H](O)c1ccc(OCCO)cc1)C[C@H](O)COCc1ccccc1
TRUE

* * *

assay: small-molecule binders of probe aInhba, primary screen, biochemical, small-molecule microarray, 635/667 nm fluorescence (AID 1148); details: higher = more signal;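 also: score merges 667nm spot fluorescence with signal-to-noise for antibody binding to printed compounds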
Decision: composite z-score >= -0.4 yields YES, all other cases yield NO.

Some entries whose results are on file:
[[record]]
compound = "CCCCCN1CC=CC23O[C@@H]4/C=C\\CCC(C)OC(=O)C4[C@H]2C(=O)N(CCO)[C@@H]3C1=O (stereo not given in full)"
label_value = "YES"

[[record]]
compound = "CCOC(=O)C[C@H]1[C@H](OC(=O)Cc2ccc3c(c2)OCO3)[C@@H](NC(=O)c2ccc3ccccc3c2)c2cc(OCCCO)ccc2N1C(=O)c1ccc2ccccc2n1"
label_value = "YES"


// inclusive: composite z-score at least -0.4? input: COC(=O)C(CC#Cc1ccc2c(c1)[C@]1(C(=O)N2)[C@H](C(N)=O)[C@H]2C(=O)O[C@H](c3ccccc3)[C@H](c3ccccc3)N2[C@@H]1c1ccc(O)cc1)C(=O)OC
NO

Then this compound: CCOC(=O)C[C@H]1[C@H](OC(=O)c2ccc(C(=O)c3ccccc3)cc2)[C@@H](NC(=O)Cc2ccc(OC)cc2)c2cc(OCCCO)ccc2N1C(=O)Cc1ccc(OC)cc1
YES

Then this compound: COCCCNC(=O)[C@@]1(C)c2ccccc2C(=O)N(Cc2cc(F)cc(C(F)(F)F)c2)[C@H]1c1ccc(CO)cc1
YES
